Test system: Mut^−/−; Tg^INS-MCK-Mut mice
Conditions: mouse, in vivo
MEASURED QUANTITY: Cumulative % of total dose metabolized, Mutants, mean (SD)

Below are worked cases with known answers.
| COMPOUND | TARGET OF ASSAY | MEAS VALUE |
| --- | --- | --- |
| CC(C)CC(=O)[13C](=O)[O-].[Na+] [Sodium 1-^13C-α-Ketoisocaproic Acid] | Mut^−/−; Tg^INS-MCK-Mut mice | 24.00 (12.95) % |
| C[13C](=O)[O-].[Na+] [1-^13C-acetate, Sodium 1-^13C-Acetate] | Mut^−/−; Tg^INS-MCK-Mut mice | 42.23 (14.32) % |
| N[C@@H](C[13c]1ccccc1)C(=O)O [L-1-^13C-Phenylalanine] | Mut^−/−; Tg^INS-MCK-Mut mice | 5.71 (2.74) % |
| CC(C)C[13C@H](N)C(=O)O [L-2-^13C-Leucine] | Mut^−/−; Tg^INS-MCK-Mut mice | 3.32 (0.85) % |
| CC(C)[13C@H](N)C(=O)O [2-^13C-Valine] | Mut^−/−; Tg^INS-MCK-Mut mice | 5.15 (2.19) % |
| CC(C)C[C@H](N)[13C](=O)O [L-1-^13C-Leucine] | Mut^−/−; Tg^INS-MCK-Mut mice | 12.44 (3.10) % |

Next compound, please.
Record C[13C](=O)C(=O)O [Sodium 1-^13C-Pyruvate] has Mut^−/−; Tg^INS-MCK-Mut mice Cumulative % of total dose metabolized, Mutants, mean (SD) equal to 52.99 (9.85) %

###

System: Mut^−/−; Tg^INS-MCK-Mut mice
Conditions: mouse, in vivo
Examples of compounds with documented Cumulative % of total dose metabolized, Controls, mean (SD) follow.

Measured Cumulative % of total dose metabolized, Controls, mean (SD) of CC(C)C[C@H](N)[13C](=O)O [L-1-^13C-Leucine] : 13.54 (1.50) %

Cumulative % of total dose metabolized, Controls, mean (SD) reported for this compound CC(C)C[13C@H](N)C(=O)O [L-2-^13C-Leucine] : 3.68 (2.34) %

# Cumulative % of total dose metabolized, Controls, mean (SD) (compound: N[C@@H](C[13c]1ccccc1)C(=O)O [L-1-^13C-Phenylalanine] ) is 10.75 (7.38) %

Cumulative % of total dose metabolized, Controls, mean (SD) for C[13C](=O)C(=O)O [Sodium 1-^13C-Pyruvate] is 52.16 (17.06) %

Query CC(C)[13C@H](N)C(=O)O [2-^13C-Valine] yields Cumulative % of total dose metabolized, Controls, mean (SD) of 4.41 (2.63) %

Per the records, this compound ( CC(C)CC(=O)[13C](=O)[O-].[Na+] [Sodium 1-^13C-α-Ketoisocaproic Acid] ) has Cumulative % of total dose metabolized, Controls, mean (SD) equal to 33.95 (3.66) %

The recorded Cumulative % of total dose metabolized, Controls, mean (SD) for entry C[13C](=O)[O-].[Na+] [1-^13C-acetate, Sodium 1-^13C-Acetate] equals 38.02 (11.79) %
